All figures here come from patent US20210115113A1.

target-or-test-system: T1, EBV gp350 expressed on the surface of stably transfected CHO cells (Epstein-Barr virus, UniProt P03200 1-907)
T1 construct: also called native gp350; gp350 expressing CHO cells
T1 sequence: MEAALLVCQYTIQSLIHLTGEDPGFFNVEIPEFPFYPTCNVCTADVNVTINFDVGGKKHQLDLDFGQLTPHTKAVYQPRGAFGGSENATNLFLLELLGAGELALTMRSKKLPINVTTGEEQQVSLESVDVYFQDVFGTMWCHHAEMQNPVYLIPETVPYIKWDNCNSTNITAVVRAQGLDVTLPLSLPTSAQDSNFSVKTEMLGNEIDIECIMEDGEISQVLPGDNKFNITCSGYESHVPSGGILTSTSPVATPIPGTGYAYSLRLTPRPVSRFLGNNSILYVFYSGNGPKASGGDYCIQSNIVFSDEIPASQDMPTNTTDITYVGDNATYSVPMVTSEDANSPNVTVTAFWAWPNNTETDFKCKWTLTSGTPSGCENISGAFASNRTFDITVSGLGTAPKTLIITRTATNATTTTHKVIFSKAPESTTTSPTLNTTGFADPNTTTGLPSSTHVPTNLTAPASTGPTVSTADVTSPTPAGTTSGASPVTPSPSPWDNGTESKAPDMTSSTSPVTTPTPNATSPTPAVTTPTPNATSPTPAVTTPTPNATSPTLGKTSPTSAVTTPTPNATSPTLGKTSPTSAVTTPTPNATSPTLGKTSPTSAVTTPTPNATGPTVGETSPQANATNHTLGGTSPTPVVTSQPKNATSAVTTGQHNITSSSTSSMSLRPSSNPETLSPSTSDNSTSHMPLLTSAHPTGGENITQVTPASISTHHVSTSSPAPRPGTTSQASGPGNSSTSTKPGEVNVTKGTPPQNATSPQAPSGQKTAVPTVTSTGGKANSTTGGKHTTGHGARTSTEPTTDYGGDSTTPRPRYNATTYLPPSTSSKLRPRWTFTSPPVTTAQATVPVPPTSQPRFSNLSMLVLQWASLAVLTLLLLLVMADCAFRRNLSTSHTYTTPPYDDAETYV
experimental-details: cross-competition on gp350-CHO cells (flow), unlabeled 500 µg/ml; competitor: biotinylated h72A1
Recorded % inhibition of biotinylated nAbs by entry

binder | value-units | % inhibition of biotinylated nAbs
HB1 (antibody, V domains shown) VH: PGLVAPSQSLSITCTVSGFLLTTYGVHWVRQPPGKGLEWLGVIWAGGSTNYNSALMSRLSINKDISKSQVFLKMNSLQTDDTAMYYCTRDRGYGYLYAMDYWGQGTSVTVSS VL: KFMSTSVGDRVSVTCKASQNVGTNVAWYQQKPGQSPKALIYSTSSRYTGVPDRFAGSGSGTDYTLTISNVQSEDLAEYFCQQYNTYPYTFGGGTRLDIKR | % | 95
HB11 (antibody, V domains shown) VH: PSLVKPSQTLSLTCSVTGDSITSGFWNWIRKFPGNKLEYMGYISYSGSTYYNPSLKSRISITRDTSKNQYYLQLNSVTTEDTATYYCARGNGGNYDWYFDVWGAGTTVTVSS VL: AIMSASLGEKVTMSCRASSSVNFMNWYQQKSDDSPKLLIYYISNLAPGVPARFSGSGSGNSYSLTISGMEGEDAATYYCQQFTSSPSWTFGGGTKLEIKR | % | 97
HB5 (antibody, V domains shown, also called mHB5) VH: AELVRPGASVKISCKAFGYTFTNHNINWVKQRPGQGLDWIGYINPYNDYTSYNQKFKGKATLTVDKSSNTAYMELSSLTSEDSAVYYCARSEGWLRRGAWFAYWGQGTLVTVSA VL: AILSVSPGERVSFSCRASQSIGTSIHWYQQRTNDSPRLLIKYASESISGIPPRFSGSGSGTDFTLSINSVESEDIADYHCQQSNSWPMLTFGAGTKLELKR | % | 97
murine 72A1 (m72A1), anti-EBV gp350 neutralizing antibody from hybridoma HB168 (antibody, V domains shown, also called nAb-72A1; mouse 72A1) VH: EVQLQQSGPELVKPGTSMKISCKASGSSFTDYTMNWMKQSHGKNLEWIGLINPYNGGTRYNQKFKGKATLTLDKSSSTAYMEVLSLTSEDSAVYYCAGGLRRVNWFAYWGQGTLVSVSA VL: QAVLTQESALTTSPGETVTLTCRSSTGAVTTSNYANWVQEKPDHLFTGLIGGTNNRVPGVPARFSGSLIGDKAALTITGAQTEDEAIYFCVLWHSNHWVFGGGTKLTVL | % | 98
HB20 (antibody, V domains shown) VH: ELVKPGASVKLSCKASGYTFTSYWIQWVKQRPGQGLEWIGEINPTNGHTNYNEKFKTKATLTVDKSSSTAYMRLSSLTSEDSAVYYCARNLYYYGRPDYWGQGTSVTVSS VL: SSLSASLGDRVTISCRASQDIGNYLNWYQQKPDGTVKLLIYYTSRLHSGVPSRFSGSGSGTDYSLTISNLEQEDIATYFCQQGNALPPTFGGGTKLEIKR | % | 96
HB17 (antibody, V domains shown) VH: AELVIPGASVKVSCKASGYTFTSYWIHWVKQWPGQGLEWIGEINPNNGHTNYNEKFKSKATLTVDKSSSTAYMQLSSLTSEDSAVYYCARNLFYYSRPDYWGQGTSVTVSS VL: SSLSASLGDRVTISCRASQDIGNYLNWYQQKPDGTIKLLIYYTSRLHSGVPSRFSGSGSGTDYSLTISNLEEEDIATYFCQQGNTLPPTFGGGTKLEIKR | % | 16
